Tested on: MCF7
Assay: Antiproliferative activity against human MCF7 cells incubated for 48 hrs by MTT assay
Format: functional, cell-based
Settings: MCF7, 48 h
MEASUREMENT KIND: IC50 (µg/mL)
Give your result in µg/mL as a bare value.

> print(dat)
                                   molecule  assay.target  measurement.kind  measured.value
1  CCC(C)Oc1ccc(/C=C/C(=O)/C=C(O)/C=C/c2ccc(OC(C)CC)c(OC)c2)cc1OC (stereo not given)          MCF7              IC50            42.1
2  COc1cc(/C=C/C(=O)/C=C(O)/C=C/c2ccc(OC(C)C(N)=O)c(OC)c2)ccc1OC(C)C(N)=O (stereo not given)          MCF7              IC50            38.3
3  COc1cc(/C=C/C(=O)CC(=O)/C=C/c2ccc(O)c(OC)c2)ccc1O          MCF7              IC50            2.08

As a next step, examine the molecule that follows.
Prompt: Fill blank: measured IC50 of the molecule CCC(C)Oc1ccc(/C=C/C(O)=C/C(=O)/C=C/c2ccc(O)c(OC)c2)cc1 (stereo not given) is ____.
Response: 46.3

---

Test system: MCF7
Experiment: Antiproliferative activity against human MCF7 cells incubated for 24 hrs by MTT assay
Assay type: functional, cell-based
Details: MCF7, 24 h
We begin with a simple list: items and their reported IC50.
Give your result in µg/mL as a bare value.

> print(dat)
                                   compound  measurement.kind  unit.name  measured.value
1  COc1cc(/C=C/C(=O)CC(=O)/C=C/c2ccc(O)c(OC)c2)ccc1O              IC50      µg/mL            2.94

Prompt: Fill blank: measured IC50 of the compound COc1cc(/C=C/C(=O)/C=C(O)/C=C/c2ccc(OC(C)C(N)=O)c(OC)c2)ccc1OC(C)C(N)=O (stereo not given) is ____.
Response: 51.4

---

Test system: Vero
Assay: Cytotoxicity against African green monkey Vero cells assessed as reduction in cell viability incubated for 24 hrs by MTT assay
Assay type: cell-based
Conditions: Chlorocebus sabaeus
We begin with a simple list: items and their reported IC50.

Some solved cases for reference:
> print(dat)
                                   compound  measured.value
1  COc1cc(/C=C/C(=O)CC(=O)/C=C/c2ccc(O)c(OC)c2)ccc1O        25 µg/mL
2  CCC(C)Oc1ccc(/C=C/C(=O)/C=C(O)/C=C/c2ccc(OC(C)CC)c(OC)c2)cc1OC (stereo not given)     > 100 µg/mL
3  CCC(C)Oc1ccc(/C=C/C(O)=C/C(=O)/C=C/c2ccc(O)c(OC)c2)cc1 (stereo not given)     > 100 µg/mL
4  COc1cc(/C=C/C(=O)/C=C(O)/C=C/c2ccc(OCC(=O)O)c(OC)c2)ccc1OCC(=O)O     > 100 µg/mL

As a next step, examine the compound that follows.
Prompt: Fill blank: measured IC50 of the compound COc1cc(/C=C/C(=O)/C=C(O)/C=C/c2ccc(OC(C)C(N)=O)c(OC)c2)ccc1OC(C)C(N)=O (stereo not given) is ____.
Response: > 100 µg/mL

---

Molecular target: Histone deacetylase 1 (Homo sapiens)
Sequence (Q13547 whole entry): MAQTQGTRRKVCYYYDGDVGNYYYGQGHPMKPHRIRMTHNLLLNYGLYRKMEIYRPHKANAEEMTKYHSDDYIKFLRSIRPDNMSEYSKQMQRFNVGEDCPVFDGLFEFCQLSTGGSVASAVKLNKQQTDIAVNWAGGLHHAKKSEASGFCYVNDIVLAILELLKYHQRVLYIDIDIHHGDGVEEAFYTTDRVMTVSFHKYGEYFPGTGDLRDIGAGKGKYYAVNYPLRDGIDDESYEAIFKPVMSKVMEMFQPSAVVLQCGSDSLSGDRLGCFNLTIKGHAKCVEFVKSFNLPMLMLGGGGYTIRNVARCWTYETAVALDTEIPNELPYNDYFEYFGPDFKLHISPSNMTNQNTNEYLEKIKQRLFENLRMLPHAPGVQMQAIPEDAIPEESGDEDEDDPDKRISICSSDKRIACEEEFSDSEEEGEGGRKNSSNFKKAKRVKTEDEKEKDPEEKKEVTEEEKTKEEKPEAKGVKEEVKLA
Assay: Inhibition of HDAC1 (unknown origin)
MEASUREMENT KIND: Ki (nM)
Give your result in nM as a bare value.

Prompt: Fill blank: measured Ki of the compound COc1cc(/C=C/C(=O)/C=C(O)/C=C/c2ccc(OC(C)C(N)=O)c(OC)c2)ccc1OC(C)C(N)=O (stereo unspecified) is ____.
Response: 936

---

We begin with a simple list: items and their reported IC50.
System: Vero
Assay: Cytotoxicity against African green monkey Vero cells assessed as reduction in cell viability incubated for 72 hrs by MTT assay
Assay type: cell-based
Settings: Chlorocebus sabaeus
Give your result in µg/mL as a bare value.

Prompt: Request: IC50, test system Vero, entry COc1cc(/C=C/C(=O)/C=C(O)/C=C/c2ccc(OC(C)C(N)=O)c(OC)c2)ccc1OC(C)C(N)=O (stereo not given)
Response: 18.7

Prompt: Now consider COc1cc(/C=C/C(=O)CC(=O)/C=C/c2ccc(O)c(OC)c2)ccc1O [CURCUMIN] and answer again.
Response: 11

---

Biological target: Histone deacetylase 2 (Homo sapiens)
Sequence (Q92769 whole entry): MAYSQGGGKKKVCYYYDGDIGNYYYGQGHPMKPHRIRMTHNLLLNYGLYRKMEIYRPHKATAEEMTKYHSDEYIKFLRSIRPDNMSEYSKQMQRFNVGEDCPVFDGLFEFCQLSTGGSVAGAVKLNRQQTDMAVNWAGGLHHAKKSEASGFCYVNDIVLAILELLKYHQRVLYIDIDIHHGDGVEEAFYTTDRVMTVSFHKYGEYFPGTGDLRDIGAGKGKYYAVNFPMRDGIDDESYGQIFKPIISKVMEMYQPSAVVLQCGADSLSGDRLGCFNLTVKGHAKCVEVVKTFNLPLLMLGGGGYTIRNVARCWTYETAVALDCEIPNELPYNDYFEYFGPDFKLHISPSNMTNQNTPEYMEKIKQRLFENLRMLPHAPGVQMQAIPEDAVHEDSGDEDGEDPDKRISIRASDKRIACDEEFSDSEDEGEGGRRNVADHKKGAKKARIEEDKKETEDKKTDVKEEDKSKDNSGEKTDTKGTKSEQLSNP
MEASUREMENT KIND: pKi
// field semantics: pKi = negative decimal log of concentration (mol/L)

Prompt: Fill blank: measured pKi of the compound COc1cc(/C=C/C(=O)/C=C(O)/C=C/c2ccc(OC(C)C(N)=O)c(OC)c2)ccc1OC(C)C(N)=O (stereo unspecified) is ____.
Response: 6.26

---

Tested on: HeLa
Test: Antiproliferative activity against human HeLa cells incubated for 48 hrs by MTT assay
Format: functional, cell-based
MEASUREMENT KIND: IC50 (µg/mL)
Give your result in µg/mL as a bare value.

Prompt: Fill blank: measured IC50 of the compound COc1cc(/C=C/C(=O)/C=C(O)/C=C/c2ccc(OC(C)C(N)=O)c(OC)c2)ccc1OC(C)C(N)=O (stereo not given) is ____.
Response: 25.8

Prompt: Now consider CCC(C)Oc1ccc(/C=C/C(=O)/C=C(O)/C=C/c2ccc(OC(C)CC)c(OC)c2)cc1OC (stereo not given) and answer again.
Response: 17.5

Prompt: Now consider COc1cc(/C=C/C(=O)CC(=O)/C=C/c2ccc(O)c(OC)c2)ccc1O [CURCUMIN] and answer again.
Response: 3.57

Prompt: Now consider CCC(C)Oc1ccc(/C=C/C(O)=C/C(=O)/C=C/c2ccc(O)c(OC)c2)cc1 (stereo not given) and answer again.
Response: 14

---

Test system: MCF7
Assay: Antiproliferative activity against human MCF7 cells incubated for 72 hrs by MTT assay
Type: functional, cell-based
Settings: MCF7, 72 h
We begin with a simple list: items and their reported IC50.
Give your result in mg/L as a bare value.

> print(dat)
                                   molecule  measured.value
1  COc1cc(/C=C/C(=O)/C=C(O)/C=C/c2ccc(OC(C)C(N)=O)c(OC)c2)ccc1OC(C)C(N)=O (stereo not given)            30.7

Prompt: Fill blank: measured IC50 of the molecule CCC(C)Oc1ccc(/C=C/C(=O)/C=C(O)/C=C/c2ccc(OC(C)CC)c(OC)c2)cc1OC (stereo not given) is ____.
Response: 13.9

Prompt: Now consider COc1cc(/C=C/C(=O)CC(=O)/C=C/c2ccc(O)c(OC)c2)ccc1O [CURCUMIN] and answer again.
Response: 2.03

Prompt: Now consider CCC(C)Oc1ccc(/C=C/C(O)=C/C(=O)/C=C/c2ccc(O)c(OC)c2)cc1 (stereo not given) and answer again.
Response: 18.1

---

Tested on: MCF7
Experiment: Antiproliferative activity against human MCF7 cells incubated for 24 hrs by MTT assay
Assay type: functional, cell-based
Settings: MCF7, 24 h
We begin with a simple list: items and their reported IC50.

> print(dat)
                                   compound  assay.target  measurement.kind  measured.value
1  CCC(C)Oc1ccc(/C=C/C(=O)/C=C(O)/C=C/c2ccc(OC(C)CC)c(OC)c2)cc1OC (stereo not drawn)          MCF7              IC50     > 100 µg/mL
2  CCC(C)Oc1ccc(/C=C/C(O)=C/C(=O)/C=C/c2ccc(O)c(OC)c2)cc1 (stereo not drawn)          MCF7              IC50     > 100 µg/mL

As a next step, examine the compound that follows.
Prompt: Fill blank: measured IC50 of the compound COc1cc(/C=C/C(=O)/C=C(O)/C=C/c2ccc(OCC(=O)O)c(OC)c2)ccc1OCC(=O)O is ____.
Response: > 100 µg/mL

---

We begin with a simple list: items and their reported IC50.
Test system: Vero
Assay: Cytotoxicity against African green monkey Vero cells assessed as reduction in cell viability incubated for 72 hrs by MTT assay
Assay type: cell-based
Conditions: Chlorocebus sabaeus

> print(dat)
                                   compound  measurement.kind  measured.value
1  CCC(C)Oc1ccc(/C=C/C(O)=C/C(=O)/C=C/c2ccc(O)c(OC)c2)cc1 (stereo not drawn)              IC50     > 100 µg/mL
2  CCC(C)Oc1ccc(/C=C/C(=O)/C=C(O)/C=C/c2ccc(OC(C)CC)c(OC)c2)cc1OC (stereo not drawn)              IC50     > 100 µg/mL

As a next step, examine the compound that follows.
Prompt: Request: IC50, test system Vero, entry COc1cc(/C=C/C(=O)/C=C(O)/C=C/c2ccc(OCC(=O)O)c(OC)c2)ccc1OCC(=O)O
Response: > 100 µg/mL
